- Subject Of Test: T1, human/cynomolgus monkey ROR1 protein (Acro Biosystems, Cat. No.: RO1-H522y) (human/cynomolgus monkey, UniProt Q01973 30-403)
- T1 construct: Bought SPR analyte
- Assay Comment: SPR (Biacore), antibody captured on anti-hIgG CM5 chip, ROR1 protein as analyte, method of Example 5

# Binder, kon [M⁻¹ s⁻¹]
measured = [
    ("hz29H5D8-3.1 (antibody, human IgG1, kappa, V domains shown, Humanized, human IgG1/kappa) VH: QVQLVQSGAEVKKPGSSVKVSCKASGYTFTNYGISWVRQAPGQGLEWMGEIYPRSVNTYYAQKFQGRVTITADKSTSTAYMELSSLRSEDTAVYYCARHYYGSSLDYWGQGTLVTVSS VL: DIQMTQSPSSLSASVGDRVTITCITSSDIEDDMNWYQQKPGKAPKLLISEGNSLRPGVPSRFSSSGYGTDFTFTISSLQPEDIATYYCLQSDNIFTFGQGTKVEIKR", "1.95e+06"),
    ("hz137G11D10-3.1 (antibody, human IgG1, kappa, V domains shown, Humanized, human IgG1/kappa) VH: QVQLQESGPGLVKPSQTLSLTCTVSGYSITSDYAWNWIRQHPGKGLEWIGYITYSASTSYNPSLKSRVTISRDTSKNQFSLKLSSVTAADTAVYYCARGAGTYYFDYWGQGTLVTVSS VL: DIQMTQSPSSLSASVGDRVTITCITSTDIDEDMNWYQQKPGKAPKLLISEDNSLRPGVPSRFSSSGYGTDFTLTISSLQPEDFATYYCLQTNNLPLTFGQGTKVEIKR", "2.86e+06"),
    ("hz29H5D8-2.1 (antibody, human IgG1, kappa, V domains shown, Humanized, human IgG1/kappa) VH: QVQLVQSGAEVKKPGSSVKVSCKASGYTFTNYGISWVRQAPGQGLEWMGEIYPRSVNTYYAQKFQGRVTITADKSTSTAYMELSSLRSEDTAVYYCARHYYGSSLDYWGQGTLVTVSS VL: DIQMTQSPSSLSASVGDRVTITCITSSDIEDDMNWYQQKPGKAPKLLIYEGNSLRPGVPSRFSSSGYGTDFTFTISSLQPEDIATYYCLQSDNIFTFGQGTKVEIKR", "1.57e+06"),
]
